Hey, just so you know, these numbers are from patent US10399968B2.

# Assay Details: Oral bioavailability (BA) in monkeys
# Type: in vivo, Macaca fascicularis
# Assay Setup: male, cynomolgus monkey, blood, 1 mg/kg oral vs jugular vein
Readout Name: bioavailability (%)
The figure you give is taken to be in %; do not add the unit.

1. CCc1[nH]c(C(=O)N[C@@H]2CCN(c3nnc(C(C)(C)O)s3)C[C@@H]2OC)nc1Cl :: 85
2. CCc1[nH]c(C(=O)N[C@@H]2CCN(c3nnc([C@@H](C)O)s3)C[C@@H]2OC)nc1Cl (single isomer, unassigned) :: 92
3. CCc1[nH]c(C(=O)N[C@@H]2CCN(c3nnc([C@H](C)O)s3)C[C@@H]2OC)nc1Cl (single isomer, unassigned) :: 100

Could you now look at the following compound, please?
Query string: Name the recorded bioavailability of the compound listed here: CCc1[nH]c(C(=O)N[C@@H]2CCN(c3nnc(C(C)O)s3)C[C@@H]2OC)nc1Cl (mixture of isomers)
Result string: 100
